# tested_system: alpha-thrombin (Homo sapiens, UniProt P00734;P00734 328-363;364-622)
# test_summary: ELISA-based binding with competition; 100-fold excess unlabeled competitor as control; 20 mM Tris pH 7.5, 150 mM NaCl, 0.1% BSA, 0.1% Tween 20, 100 ug/mL sheared salmon sperm DNA, 1 h, room temperature; thrombin coated at 250 nM
experimental_readout: Kd (nM)
Answer format: numeric, nM implied, no suffix.

TCGTCAAGGTACGGTTGGGGGGGTGGGTGTTGACGTTGAA (structured_DNA) [AYA1809004]    13

Entry GCGGTGTTGCTGGGGTTGGGAGGTTGGAGGAAGCAATCGC (structured_DNA) [AYA1809002] : reported Kd = ?
10
